System: STZ-diabetic mice
Assay protocol: Acute hypoglycemic assay in STZ-diabetic mice
Type: in vivo
Experimental parameters: STZ-diabetics mice, 100 mg/kg of bw per os, 3h
Procedure: Type II diabetes mellitus was induced in mice by a single intraperitoneal injection of freshly prepared STZ (Sigma Aldrich) dissolved in 0.1M citrate buffer, pH 4.5, in a volume of 110 mg/kg of bw. After 7 days of STZ administration, blood glucose levels of each mouse were determined. Mice with blood glucose levels higher than 11 mM were considered diabetic and were included in the study. […]
Measured endpoint: Blood glucose concentration (mM)

| Compound | Measured endpoint | Reported value |
| --- | --- | --- |
| O=c1oc2ccc(O)cc2cc1-c1ccc(O)cc1 [Compound 17, 6-Hydroxy-3-(4-hydroxyphenyl)-coumarin] | Blood glucose concentration | 12.5 |
| COc1ccc(-c2cc3c(O)cc(O)cc3oc2=O)cc1 | Blood glucose concentration | 10.5 |
| Cc1ccccc1-c1cc2ccc(O)cc2oc1=O [Compound 11, 7-Hydroxy-3-(2-methylphenyl)-coumarin] | Blood glucose concentration | 15.3 |
| Cc1ccc(-c2cc3c(O)cc(O)cc3oc2=O)cc1 | Blood glucose concentration | 17.2 |
| O=c1oc2cc(O)cc(O)c2cc1-c1ccc(O)cc1 | Blood glucose concentration | 13.0 |

---

Catalogue of Blood glucose concentration values
Test system: STZ-diabetic mice
Assay protocol: Acute hypoglycemic assay in STZ-diabetic mice
Format: in vivo
Experimental parameters: STZ-diabetics mice, 100 mg/kg of bw per os, 0h
Procedure: Type II diabetes mellitus was induced in mice by a single intraperitoneal injection of freshly prepared STZ (Sigma Aldrich) dissolved in 0.1M citrate buffer, pH 4.5, in a volume of 110 mg/kg of bw. After 7 days of STZ administration, blood glucose levels of each mouse were determined. Mice with blood glucose levels higher than 11 mM were considered diabetic and were included in the study. […]

| Molecule | Unit string | Blood glucose concentration |
| --- | --- | --- |
| COc1ccc(-c2cc3c(O)cc(O)cc3oc2=O)cc1 [Compound 35] | mM | 20.3 |
| O=c1oc2ccc(O)cc2cc1-c1ccc(O)cc1 [Compound 17, 6-Hydroxy-3-(4-hydroxyphenyl)-coumarin] | mM | 23.4 |
| O=c1oc2cc(O)cc(O)c2cc1-c1ccc(O)cc1 [Compound 28] | mM | 18.2 |
| Cc1ccc(-c2cc3c(O)cc(O)cc3oc2=O)cc1 [Compound 25] | mM | 23.0 |
| Cc1ccccc1-c1cc2ccc(O)cc2oc1=O [Compound 11, 7-Hydroxy-3-(2-methylphenyl)-coumarin] | mM | 23.5 |

---

Target or test system: α-Glucosidase (Saccharomyces cerevisiae)
Construct: purchased Sigma Aldrich G0660-750UN
Sequence (P53341 whole entry): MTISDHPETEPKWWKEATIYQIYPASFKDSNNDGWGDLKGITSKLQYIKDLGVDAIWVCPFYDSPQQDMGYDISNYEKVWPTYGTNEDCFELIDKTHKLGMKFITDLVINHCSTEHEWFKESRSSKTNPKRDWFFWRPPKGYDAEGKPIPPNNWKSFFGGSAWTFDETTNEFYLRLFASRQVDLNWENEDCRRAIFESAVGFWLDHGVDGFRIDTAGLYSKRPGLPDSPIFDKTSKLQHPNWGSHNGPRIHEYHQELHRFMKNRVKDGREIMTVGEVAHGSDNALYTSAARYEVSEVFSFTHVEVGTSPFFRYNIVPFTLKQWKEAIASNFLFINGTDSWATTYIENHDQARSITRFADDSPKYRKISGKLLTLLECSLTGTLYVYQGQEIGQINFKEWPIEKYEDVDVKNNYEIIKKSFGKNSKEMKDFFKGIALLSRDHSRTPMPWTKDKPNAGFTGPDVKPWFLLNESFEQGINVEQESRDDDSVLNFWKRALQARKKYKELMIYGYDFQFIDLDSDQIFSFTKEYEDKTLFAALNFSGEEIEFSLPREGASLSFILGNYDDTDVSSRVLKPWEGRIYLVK
Assay protocol: biochemical
Format: biochemical
Listed next: entries and their corresponding IC50.
Measured endpoint: IC50 (µM)

| Molecule | Readout relation | Reported value |
| --- | --- | --- |
| COc1ccc(-c2cc3ccc(O)c(O)c3oc2=O)cc1OC | > | 1000 |
| COc1ccc(-c2cc3cc(O)ccc3oc2=O)cc1OC | = | 13.1 |
| Cc1ccccc1-c1cc2cccc(O)c2oc1=O [Compound 10, 8-Hydroxy-3-(2-methylphenyl)-coumarin] | > | 1000 |
| O=c1oc2cc(O)ccc2cc1-c1ccccc1O [Compound 16, 7-Hydroxy-3-(2-hydroxyphenyl)-coumarin] | = | 10.2 |
| O=c1oc2cc(O)ccc2cc1-c1ccc(O)c(O)c1 | = | 29.9 |
| COc1ccc(-c2cc3cccc(O)c3oc2=O)cc1OC | = | 20.2 |
| COc1ccc(-c2cc3cccc(O)c3oc2=O)cc1 [Compound 22, 8-Hydroxy-3-(4-methoxyphenyl)-coumarin] | > | 1000 |
| COc1ccc(-c2cc3ccc(O)c(O)c3oc2=O)cc1 | = | 18.8 |
| Cc1ccc(-c2cc3ccc(O)c(O)c3oc2=O)cc1 | = | 25.5 |
| Cc1ccc(C)c(-c2cc3ccc(O)cc3oc2=O)c1 | > | 1000 |
| CCN(CC)c1ccc2cc(-c3ccc(O)cc3)c(=O)oc2c1 | = | 13.4 |
| COc1ccc2oc(=O)c(-c3ccc(O)cc3)cc2c1 [Compound 27, 6-Methoxy-3-(4-hydroxyphenyl)-coumarin] | = | 70.3 |
| Cc1ccc(C)c(-c2cc3cccc(O)c3oc2=O)c1 | > | 1000 |
| O=c1oc2cc(O)cc(O)c2cc1-c1ccc(F)cc1 | = | 19.1 |
| Cc1ccc(-c2cc3cccc(O)c3oc2=O)cc1 [Compound 8, 8-Hydroxy-3-(4-methylphenyl)-coumarin] | = | 69.6 |
| COc1ccc(-c2cc3c(O)cc(O)cc3oc2=O)cc1OC | = | 39.1 |
| O=c1oc2c(O)cccc2cc1-c1ccc(F)cc1 [Compound 19, 8-Hydroxy-3-(4-fluorophenyl)-coumarin] | > | 1000 |
| O=c1oc2c(O)c(O)ccc2cc1-c1ccc(F)cc1 | > | 1000 |
